B1: ZNF449 (parent)
chain: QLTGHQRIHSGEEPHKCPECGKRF

# Variants of: B1
# protocol: protein stability index of a GFP-peptide fusion (GPS, HEK-293T) (PSI 1-6); higher = more stable;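 further: lentivirally expressed fusions sorted by FACS into six bins by GFP to DsRed ratio, PSI derived from sequencing read proportions per bin multiplied by bin number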
# protocol_conditions: c terminus: a fixed tail appended
Quick list: protein stability index per entry.

monomer_sequence	measured_attribute	reading
QLTGHQRIHSGEEPHKCPECGKMF	protein stability index	4.06
QLTGHQRIHSGEEPHCCPECGKRF	protein stability index	3.84

Query: protein stability index; subject: QLTGHQRIHSGEEPHKCPRCGKRF
3.15

Query: protein stability index; subject: QLTFHQRIHSGEEPHKCPECGKRF
3.5
